Assay Endpoint: melting point

Example entries and their recorded answers appear below.
CCCCCCCCCCCCCCCCNS(=O)(=O)NCCC [Compound 8, N-hexadecyl-N′-propylsulfamide] | 108 to 110 °C
CCCCCCCCCCCCCCCCCCNS(N)(=O)=O [Compound 2, N-octadecylsulfamide] | 105 to 107 °C
CCCCCCCCCCCCCCNS(N)(=O)=O [Compound 4, N-tetradecylsulfamide] | 99 to 101 °C

**Q:** Please give the measured melting point for this compound: CCCCCCCCCCCCCCCCNS(N)(=O)=O [Compound 3, N-hexadecylsulfamide]
**A:** 102 to 104 °C

**Q:** Then CCCCCCCCCCCCCCNS(=O)(=O)NCCC [Compound 9, N-propyl-N′-tetradecylsulfamide] ?
**A:** 105 to 107 °C

**Q:** Entry CCCCCCCC/C=C\CCCCCCCCNS(N)(=O)=O [Compound 1, N-(cis-9-octadecenyl)sulfamide] please
**A:** 68 to 70 °C

**Q:** Now consider CCCCCCCC/C=C\CCCCCCCCNS(=O)(=O)NCCC and answer again.
**A:** 82 to 83 °C

**Q:** Again, but for CCCCCCCCCCCCCCCCCCNS(=O)(=O)NCCC [Compound 7, N-octadecyl-N′-propylsulfamide]
**A:** 110 to 112 °C
